Recorded Maximum MFI, one value per entry.
molecular target: human MSLN on OVCAR3 tumor cells (human) (UniProt Q13421); experiment: FACS, OVCAR3 cells
Sequence (Q13421 other isoform, or with tags, fused parts or gaps): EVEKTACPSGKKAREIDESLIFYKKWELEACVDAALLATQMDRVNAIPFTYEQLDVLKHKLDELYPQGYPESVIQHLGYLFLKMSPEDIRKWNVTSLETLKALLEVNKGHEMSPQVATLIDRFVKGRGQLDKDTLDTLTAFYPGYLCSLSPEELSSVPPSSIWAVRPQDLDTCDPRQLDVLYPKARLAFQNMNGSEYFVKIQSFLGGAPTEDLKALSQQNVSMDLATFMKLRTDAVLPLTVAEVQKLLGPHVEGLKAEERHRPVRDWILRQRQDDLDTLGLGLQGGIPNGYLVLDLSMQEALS

>  <BINDER>
F3.80.22-H2 (scFv, not shown: small tags and cut ends) scFv: DIVMTQTPLSLPVTPGEPASISCRSSQSLEHNNGNTYLHWFLQKPGQSPQLLIYKVSNRFSGVPDRFSGSGSGTDFTLKISRVEAEDVGVYYCSQSTHVPFTFGQGTKLEIKGGGGSGGGGSGGGGSEVQLVQSGAEVKKPGATVKISCKASGYTFTDYEIHWVQQAPGKGLEWMGAFDPEIGGSAYNQKFKDRVTITADKSTSTAYMELSSLRSEDTAVYYCTDYYGSSSGYFDVWGQGTTVTVSS

>  <Maximum MFI [MFI]>
512

$$$$
>  <BINDER>
F3.80.22-H6 (scFv, not shown: small tags and cut ends) scFv: DIVMTQTPLSLPVTPGEPASISCRSSQSLEHNDGNTYLHWFLQKPGQSPQLLIYKVSNRFSGVPDRFSGSGSGTDFTLKISRVEAEDVGVYYCSQSTHVPFTFGQGTKLEIKGGGGSGGGGSGGGGSEVQLVQSGAEVKKPGATVKISCKASGYTFTDYEIHWVQQAPGKGLEWMGAFDPEIGGSAYNQKFKDRVTITADKSTSTAYMELSSLRSEDTAVYYCTDYYGSSSGYFDVWGQGTTVTVSS

>  <Maximum MFI [MFI]>
473

$$$$
>  <BINDER>
F3.38.10-L2H3a (scFv, not shown: small tags and cut ends) scFv: DIVMTQSPDSLAVSLGERATINCRSSQSLIHSDGNTYLQWYQQKPGQSPKLLIYKVSNRFSGVPDRFSGSGSGTDFTLTISSLQAEDVAVYYCSQTTHVPFTFGQGTKLEIKGGGGSGGGGSGGGGSEVQLVQSGAEVKKPGASVKVSCKASGYIFTDYYMNWVRQAPGQRLEWMGVINPKQGVISHNQKFKGRVTITVDKSANTAYMELSSLRSEDTAVYYCANYGSRFYAMDYWGQGTTVTVSS

>  <Maximum MFI [MFI]>
499

$$$$
